- assay_notes: Caco-2 permeability
- Type: in vitro ADME
- particulars: human; Caco-2 cells
Structures can show the parent of a compound that is named as a salt.
Measured Papp, listed per entry for reference.
Reply with just the number (in ×10⁻⁶ cm/s).

Consider the following illustrative entries.
N[C@@H](Cc1ccc(O)cc1)C(=O)N1CCC[C@H]1C(=O)N[C@@H](Cc1ccccn1)c1ccccc1 [Example 8, dihydrochloride]    3.2
N[C@@H](Cc1c[nH]cn1)C(=O)N1CCC[C@H]1C(=O)N[C@@H](Cc1ccccn1)c1ccccc1    1.6
N=C(N)NCCC[C@H](N)C(=O)N1CCC[C@H]1C(=O)N[C@@H](Cc1ccccn1)c1ccccc1    8.6
CC(C)[C@H](N)C(=O)N1CCC[C@H]1C(=O)N[C@@H](Cc1ccccn1)c1ccccc1    1.4

Here's the next entry for you.
Q: Fill in: Papp of `NCCCC[C@H](N)C(=O)N1CCC[C@H]1C(=O)N[C@@H](Cc1ccccn1)c1ccccc1` is ___
A: 0.07

---

- assay_notes: Hum Liver Assay (human liver S9 fraction)
- Format: in vitro ADME
- particulars: human, s9, Table 2, read-out: Prodrug Clint Hum Liver S9
Measured microsomal CLint, listed per entry for reference.
Reply with just the number (in µL/min/mg).

Q: Fill in: microsomal CLint of `CC(C)[C@H](N)C(=O)N1CCC[C@H]1C(=O)N[C@@H](Cc1ccccn1)c1ccccc1` is ___
A: 120

Q: Repeat with `N[C@@H](Cc1c[nH]cn1)C(=O)N1CCC[C@H]1C(=O)N[C@@H](Cc1ccccn1)c1ccccc1`
A: 33

Q: Repeat with `NCCCC[C@H](N)C(=O)N1CCC[C@H]1C(=O)N[C@@H](Cc1ccccn1)c1ccccc1`
A: 73

Q: Repeat with `N=C(N)NCCC[C@H](N)C(=O)N1CCC[C@H]1C(=O)N[C@@H](Cc1ccccn1)c1ccccc1`
A: 69

---

- assay_notes: Hum Liver Assay (human liver S9 fraction)
- Format: in vitro ADME
- particulars: human, s9, Table 1, read-out: Prodrug Clint Hum Liver S9
Measured microsomal CLint, listed per entry for reference.
Reply with just the number (in µL/min/mg).

CC(C)C(=O)OCOC(=O)N[C@@H](Cc1ccccn1)c1ccccc1 [Example 1]    2300
CC(OC(=O)N[C@@H](Cc1ccccn1)c1ccccc1)OC(=O)C(C)C (single isomer, unassigned) [Example 4 Diastereomer 1]    1200

Q: Fill in: microsomal CLint of CC(C)C(=O)OC(OC(=O)N[C@@H](Cc1ccccn1)c1ccccc1)C(C)C (single isomer, unassigned) [Example 2 Diastereomer 2] is ___
A: 1900
